From: patent US11358949B2

Could you please report measured IC50 for the items listed next?

Data request: # value lookup — system FMS (Homo sapiens, UniProt P07333), readout IC50, item COc1cc2c(Oc3ccc(NC(=O)C4(C(=O)Nc5ccc(F)cc5)CC4)cc3)ccnc2cc1OC(=O)N1C[C@H]2C[C@@H]1CN2C [Compound 2-6]
Data returned: < 0.1 µM

Data request: # value lookup — system FMS (Homo sapiens, UniProt P07333), readout IC50, item COc1cc2nccc(Oc3ccc(NC(=O)C4(C(=O)Nc5ccc(F)cc5)CC4)cc3)c2cc1OC(=O)N1CCNCC1(C)C [Compound 7-6]
Data returned: 0.1 to 1 µM

Data request: # value lookup — system FMS (Homo sapiens, UniProt P07333), readout IC50, item COc1cc2c(Oc3ccc(NC(=O)C4(C(=O)Nc5ccc(F)cc5)CC4)cc3)ccnc2cc1OC(=O)N1CCN(C)CC1 [Compound 1-10]
Data returned: < 0.1 µM

Data request: # value lookup — system FMS (Homo sapiens, UniProt P07333), readout IC50, item COc1cc2c(Oc3ccc(NC(=O)C4(C(=O)Nc5ccc(F)cc5)CC4)cc3)ncnc2cc1OC(=O)N1CCN(C)C[C@H]1C [Compound 8-6]
Data returned: 0.1 to 1 µM

Data request: # value lookup — system FMS (Homo sapiens, UniProt P07333), readout IC50, item COc1cc2nccc(Oc3ccc(NC(=O)C4(C(=O)Nc5ccc(F)cc5)CC4)cc3)c2cc1OC(=O)N1CCN(C)CC1(C)C [Compound 7-7]
Data returned: 0.1 to 1 µM

Data request: # value lookup — system FMS (Homo sapiens, UniProt P07333), readout IC50, item COc1cc2c(Oc3ccc(NC(=O)C4(C(=O)Nc5ccc(F)cc5)CC4)cc3)ccnc2cc1OC(=O)N1[C@H](C)CNC[C@@H]1C [Compound 6-2]
Data returned: 0.1 to 1 µM
